System: L-02
Protocol Description: MTT assay, normal hepatic L-02 cell line
Format: cell-based
Condition Context: L02, 72 h, human normal hepatic L-02 cell line
Procedure: The colorimetric MTT (3-(4,5-dimethylthiazol-2-yl)-2,5-diphenyltetrazolium bromide) assay was used to measure the cell viability of all of the above cell lines following treatment with target hybrids. Exponentially growing cells were added into 96-well plates at a concentration of 2000–4000 cells per well. […] After that, the absorbance (OD) data of each well at 570 nm wavelength were measured by a Microplate Reader (BIO-RAD), and half inhibition rates (IC50) were calculated[59]^,[60].
Quantity Measured: IC50

- Molecule: "COc1ccc2occ(C(=O)NCCCOc3no[n+]([O-])c3S(=O)(=O)c3ccccc3)c(=O)c2c1 [13c]"
  Result: "> 50 µM"

Identify IC50 associated with the molecule CC(CN)Oc1no[n+]([O-])c1S(=O)(=O)c1ccccc1 (stereo not drawn)
> 50 µM

Give reported IC50 value for COc1ccc2oc(N3CCN(CCOc4no[n+]([O-])c4S(=O)(=O)c4ccccc4)CC3)c(C(=O)O)c(=O)c2c1 [15d]
> 50 µM
